Data origin: ChEMBL document CHEMBL1221342

Reported TGI values are given for each entry in this list.
Test system: SK-OV-3
ASSAY_METHOD_TEXT: Growth inhibition of human SKOV3 cells after 48 hrs by SRB assay
Type: functional
STUDY_CONDITIONS: SK-OV-3, 48 h, read-out: pTGI (converted)

COMPOUND	TGI
COc1cc(C2CC(c3ccc(N(C)C)cc3)=NN2C(C)=O)cc(OC)c1OC (centres undefined)	> 100 µM
COc1cc(C2CC(c3cccc(O)c3)=NN2C(C)=O)cc(OC)c1OC (centres undefined)	> 100 µM
COc1ccc(C2CC(c3cc(OC)c(OC)c(OC)c3)=NN2)cc1 (centres undefined)	> 100 µM
CCN(CC)c1ccc(C2=NN(C(C)=O)C(c3cc(OC)c(OC)c(OC)c3)C2)cc1 (centres undefined)	15.8 µM
COc1ccc(/C=C\c2cc(OC)c(OC)c(OC)c2)cc1O	> 100 µM
COc1cc(C2=NNC(c3ccc(N(C)C)cc3)C2)cc(OC)c1OC (centres undefined)	> 100 µM
COc1cc(C2=NN(C(C)=O)C(c3cc(OC)c(OC)c(OC)c3)C2)ccc1O (centres undefined)	> 100 µM
CCN(CC)c1ccc(C2CC(c3cc(OC)c(OC)c(OC)c3)=NN2)cc1 (centres undefined)	> 100 µM
COc1cc(C2CC(c3cccc(Br)c3)=NN2C(C)=O)cc(OC)c1OC (centres undefined)	63.1 µM
